Test system: K-562 leukemia
Test: NCI tumour cell line growth inhibition, 48 h
I'd be grateful if you could share measured TGI for these entries.

Field: example entries. Status: answers known.
Enquiry: Recorded TGI for CN(C)C(=S)/N=c1\ss/c(=N\C(=S)N(C)C)n1-c1ccc(Cl)cc1 with K-562 leukemia, please?
Return: > 100 µM

Enquiry: Same again, this time with NC(=O)c1ncn2c(=O)n(CCl)nnc12
Return: > 100 µM

Enquiry: Now give it for CCOC(=O)C1=CC(C)(C(=O)OCC)Nc2c(nc(SC)n(C)c2=O)N1 (stereo not drawn) too.
Return: > 10 µM

Enquiry: Also CCOC(=O)c1cn(CC)c2cc3c(cc2c1=O)CCS3(=O)=O ?
Return: > 100 µM

Enquiry: Then this compound: CC(C)N1CCC2(CC1)NNc1ncccc1-n1cccc12
Return: > 100 µM

For each entry beneath this line, provide reported TGI.
1. O=C1OC(c2ccc(Cl)cc2)(c2ccc(Cl)cc2)c2c1ccc1ccccc21
2. CC1C2CC(CC2N)C1(C)C (stereo not drawn)
3. CCOC(=O)[C@H]1CSC[C@@H](C(=O)OC)N1
4. CC1CC(=O)Nc2ccc(N=NN(C)C)cc2N1C=O (stereo not drawn)

Return:
["> 100 µM", "> 100 µM", "> 100 µM", "> 100 µM"]

Please state, for each entry, its recorded TGI.
1. COc1ccc(S(=O)(=O)Nc2ccc(-c3csc(N4C(=O)/C(=C/c5ccccc5)N=C4c4ccccc4)n3)cc2)cc1Cl
2. CC1(C)OCC(COC(=O)NCn2cc(-c3ccccc3)nn2)O1 (stereo not drawn)
3. NNC(=O)CCC(NS(=O)(=O)c1ccc(Cl)cc1)C(=O)NN (stereo not drawn)

Return:
1. > 100 µM
2. > 100 µM
3. > 100 µM

Enquiry: Hello, I am looking for reported TGI with K-562 leukemia for O=C1C(Cl)=C(Nc2cccc(O)c2)C(=O)N1Cc1ccc(Cl)cc1 . Could you help?
Return: 4.52 µM

###

Test system: T-47D breast
Assay: NCI tumour cell line growth inhibition, 48 h
REPORTED PROPERTY: GI50

Consider the reported GI50 for these molecules:
Enquiry: Given the molecule O=C1NC(=O)C(c2ccc(Cl)cc2)=C1Nc1ccc(Cl)c(C(=O)O)c1 , what is its reported GI50?
Return: > 25 µM

Enquiry: Same again, this time with COc1ccc(-c2cn(-c3cccc(C(=O)/C=C/c4ccc(O)c(OC)c4)c3)c(=O)[nH]2)cc1
Return: 3.27 µM

Enquiry: Try COc1cc(F)cc([C@@H](CO)NC(=O)[C@@H](C)N2Cc3ccc(-c4nc(NC5CCOCC5)ncc4Cl)cc3C2=O)c1 next.
Return: 5.03 µM

Enquiry: Field entry: O=C(NCCN1CCC(O)CC1)c1cc2c(o1)C(=O)c1ccccc1C2=O
Return: 0.376 µM

Enquiry: Check N#Cc1ccc(C2C3=C(CCCC3=O)OC3=C2C(=O)c2ccccc2C3=O)cc1 (configuration not stated) too.
Return: 0.453 µM

Enquiry: Now consider COc1ccc(-c2nn(-c3cccc(Cl)c3)cc2-c2c(C#N)c(=O)n3[nH]c(-c4ccc(C)cc4)nc3c2C#N)cc1 and answer again.
Return: 5.15 µM

Enquiry: Same for O=CC(Br)C(Br)c1ccccc1 (configuration not stated)
Return: 0.942 µM

Enquiry: Same question for COc1ccc2c(c1)CCc1[nH]nc(-c3cc(OC)c(OC)c(OC)c3)c1-2 please.
Return: 3.59 µM

Report GI50 for every entry below.
1. COc1ccc2c(c1)c1nc3cc(C)c(C)cc3nc1n2CCN(C)C
2. O=c1oc(-c2ccccc2)cc2cccc(O)c12
3. CCOc1ccc2nc(-c3cccc(OCC(=O)NC(C)C)c3)nc(Nc3ccc(-c4cn[nH]c4)cc3)c2c1

Return:
["1.2 µM", "13.6 µM", "0.292 µM"]

Enquiry: # query: GI50 of entry C[C@]1(C(=O)O)N[C@H](C(=O)O)CS1
Return: > 1000 µM

###

System: 786-0 renal
Assay: NCI tumour cell line growth inhibition, 48 h
REPORTED PROPERTY: TGI (µM)
Answers are plain numbers, in µM.

Examples from the recorded data:
Enquiry: What value of TGI has been reported for the following compound? COc1ccc(/C=N\NC(=O)Nc2cccc3ccccc23)cc1
Return: 46.6

Enquiry: // repeat for COC12OC3CC4(C)C(=CC3OC(OC(C)C1O)C2O)CCC1C4CCC2(C)C(c3ccc(=O)oc3)CCC12O (centres undefined) and report
Return: 0.00195

Enquiry: Entry COc1cc(C=O)c(-c2cc3c(cc2C2(C)OCCS2)OCO3)c(OC)c1OC (centres undefined) please
Return: 23.6

# next compound below
Enquiry: Value lookup for TGI; key = COc1ccc(N=N/C(=N/NC(=O)c2cc(Cl)ccc2C(=O)c2ccccc2)c2ccc(N(CCC#N)CCC#N)cc2C)cc1
Return: 86.7

###

Test system: HCT-116 colon
Experiment: NCI tumour cell line growth inhibition, 48 h; in the data active = GI50 below about 0.43 µM; inactive = the rest
Answer with one of the outcomes given here: active, inactive

See these solved cases before continuing.
Enquiry: For Cc1ccc(C(=O)/C(=C\c2ccc([N+](=O)[O-])cc2)S(=O)Cc2ccc(F)cc2)cc1 (centres undefined) , what call appears in the results of this test?
Return: inactive

Enquiry: Query c1ccc(Nn2c(CCCCCCCCc3nnc(COc4ccccc4)n3Nc3ccccc3)nnc2COc2ccccc2)cc1 next
Return: inactive

Enquiry: Same thing, different compound: CSc1n(Cc2ccc3ccccc3c2)c(C)c[n+]1Cc1ccc2ccccc2c1
Return: inactive

Enquiry: Can you handle O=C1c2cc(-c3ccccc3)ccc2-c2c1c1ccc([N+](=O)[O-])cc1c(=O)n2CCCBr next?
Return: inactive

Enquiry: Now the compound O=C(/C=C/c1cccc([N+](=O)[O-])c1)c1ccc(O)c(CN2CCN(c3cc4c(cc3F)c(=O)c(C(=O)O)cn4C3CC3)CC2)c1
Return: inactive

Enquiry: Note, next up: C=C1C(=O)O[C@@H]2OC3(C)CCC4C(C)CCC1C42OO3 (some centres undefined)
Return: inactive

Enquiry: Thanks! And N#Cc1ccc(C2C3=C(CCCC3=O)OC3=C2C(=O)c2ccccc2C3=O)cc1 (centres undefined) ?
Return: inactive

Enquiry: Next compound: Cc1cc([N+](=O)[O-])ccc1NS(=O)(=O)c1cc(Cl)ccc1Cl
Return: inactive

More entries:
Enquiry: Record request — test call for COc1ccc(SC2c3ccc(C)cc3Oc3nc(N)c(C#N)c(N)c32)cc1 (centres undefined)
Return: inactive

Enquiry: And for COc1ccc2c(c1)c1nc3cc(C)c(C)cc3nc1n2CCN(C)C ?
Return: active

Enquiry: Same question for C/C(=N\NC(=O)c1cccnc1)c1cccc(/C(C)=N/NC(=O)c2cccnc2)n1.CC(=O)[O-].CC(=O)[O-].[Zn+2] please.
Return: inactive

Enquiry: Request: COc1cc2c(cc1OC)-c1ccc3cc4c(cc3c1N(CCN(C)C)C2)OCO4
Return: active

Enquiry: For COc1ccc([I+]c2ccccc2)cc1 then?
Return: inactive

###

Field: TGI. Provide a value for each of the compounds that follow.
Tested on: SW-620 colon
Assay: NCI tumour cell line growth inhibition, 48 h

Below, each entry is followed by its recorded TGI result.
Enquiry: Which TGI value is on record for CC(C)(c1ccc(Oc2ccc(C#N)c(C#N)c2)cc1)c1ccc(Oc2ccc(C#N)c(C#N)c2)cc1 ?
Return: > 100 µM

Enquiry: Then this compound: Clc1ccc(/C=N/Nc2nnc3c4ccccc4c4ncccc4c3n2)cc1
Return: > 10 µM

Enquiry: What do you get for O=C(NC12CC3CC(CC(C3)C1)C2)C(=O)c1c[nH]c2ccc([N+](=O)[O-])cc12 ?
Return: > 100 µM

Enquiry: Okay, and CCCCCCCC(=O)OCC(C[As](=O)(O)O)OC(=O)CCCCCCC (centres undefined) ?
Return: 29.1 µM

Enquiry: Then this compound: CC1(C)N=C(N)N=C(N)N1c1ccc(CCc2ccc(Cl)cc2S(=O)(=O)F)c(Cl)c1
Return: 17.7 µM

Report TGI for each item below.
1. Cc1ccc(C(=O)N2CCN(C(=O)c3ccc(C)cc3)c3ccccc32)cc1
2. Cc1cc(C)c2c(=N)c3ccccc3n(CCCCCCn3c4ccccc4c(=N)c4c(C)cc(C)nc43)c2n1
3. COc1ccc(/C=N\NC(=O)Nc2cccc3ccccc23)cc1
4. Cc1ccc(S(=O)(=O)C2c3nc4ccccc4cc3-c3nc4ccccc4nc32)cc1 (centres undefined)

Return:
> 100 µM
0.34 µM
> 100 µM
> 100 µM

###

Give TGI for every item shown.
System: ACHN renal
Assay: NCI tumour cell line growth inhibition, 48 h
Answers are plain numbers, in µM.

Enquiry: # query: TGI of entry CC(O)c1cc2c(s1)C(=O)c1scc(C(C)O)c1C2=O (stereo not given)
Return: 2.47

Enquiry: And then COc1cc(-c2csc(NC(=O)Nc3cc(C(F)(F)F)cc(C(F)(F)F)c3)n2)cc(OC)c1OC , what is it?
Return: 10.6

Enquiry: Now try CCCCCCCC(=O)OCC(C[As](=O)(O)O)OC(=O)CCCCCCC (stereo not given) .
Return: 30.6

Answer for every listed entry: what is its TGI? The entries follow.
1. CCCCCCCCC(O)C#CC(N)=O (stereo not given)
2. CC(=O)Nc1ccc(-c2nnc(SCC(=O)Nc3cccc([N+](=O)[O-])c3)o2)cc1
3. Clc1ccc(C(c2ccc(Cl)cc2)N2CCNCC2)cc1
4. CC(=O)OC1CC[C@@]2(C)C(CC[C@]3(C)C2CC=C2[C@@H]4CC(C)(C)CCC4(C)CCC23C)[C@@]1(C)C(=O)O (stereo not given in full)
5. COC(=O)[C@@]12OC[C@]34C([C@@H](O)C1O)[C@@]1(C)CC(=O)C(O)=C(C)C1C[C@H]3OC(=O)[C@H](OC(=O)/C=C(/c1ccccc1)C(F)(F)F)[C@H]42 (stereo not given in full)

Return:
1: 31; 2: 43.7; 3: 5.74; 4: 30.7; 5: 17.5
